Data provenance is paper PMC10186366.

assay_system: human GARFTase (Homo sapiens, UniProt P22102)
Construct: GARFTase (formyltransferase domain; residues 808–1010); made in house; host or cells: E. coli Rosetta (DE3)pLysS
Sequence (P22102 808-1010): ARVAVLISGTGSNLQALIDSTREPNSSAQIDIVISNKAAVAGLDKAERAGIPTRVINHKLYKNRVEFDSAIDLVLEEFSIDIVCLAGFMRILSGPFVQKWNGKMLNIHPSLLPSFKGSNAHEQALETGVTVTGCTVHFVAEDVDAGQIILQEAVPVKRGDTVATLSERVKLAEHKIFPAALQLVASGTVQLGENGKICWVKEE
test_name: In vitro GARFTase enzyme assay (THF formation from 10-CHOTHF)
Assay type: biochemical
readout_label: pKi
Scale for pKi: -log10 of concentration given in mol/L; no unit attached.

**Q:** So what's the measured pKi for this one? Nc1nc2sc(CCCCc3csc(C(=O)N[C@@H](CCC(=O)O)C(=O)O)c3F)cc2c(=O)[nH]1 [Compound 9]
**A:** 6.77
